experiment: Solubility in H2O; conditions: salt as labelled
Assign a class from recorded Solubility in H2O; defined classes: small value: < 5000 µg/mL; mid value: ≥ 5000 µg/mL and < 7000 µg/mL; large value: ≥ 7000 µg/mL

Known results for compounds:
Ask | Which Solubility in H2O band matches CN(C(=O)c1ccc(Cl)cc1)[C@H]1CC[C@@]2(O)[C@H]3Cc4ccc(O)c5c4[C@@]2(CCN3CC2CC2)[C@H]1O5.O=C(O)C(=O)O [17a—Oxalate] ?
Reply | large value

Ask | Which Solubility in H2O band matches CC(C)(C)c1ccc(C(=O)N[C@@H]2CC[C@@]3(O)[C@H]4Cc5ccc(O)c6c5[C@@]3(CCN4CC3CC3)[C@H]2O6)cc1.O=C(O)C(=O)O [Compound 8-oxalate] ?
Reply | mid value

Ask | Which Solubility in H2O band matches CN(C(=O)c1ccc(C(C)(C)C)cc1)[C@H]1CC[C@@]2(O)[C@H]3Cc4ccc(O)c5c4[C@@]2(CCN3CC2CC2)[C@H]1O5.O=C(O)C(=O)O [16a—Oxalate] ?
Reply | small value

Ask | Which Solubility in H2O band matches CN(C(=O)c1ccc(I)cc1)[C@@H]1CC[C@@]2(O)[C@H]3Cc4ccc(O)c5c4[C@@]2(CCN3CC2CC2)[C@H]1O5.O=C(O)C(=O)O [15b—Oxalate] ?
Reply | large value

Ask | Which Solubility in H2O band matches O=C(N[C@@H]1CC[C@@]2(O)[C@H]3Cc4ccc(O)c5c4[C@@]2(CCN3CC2CC2)[C@H]1O5)c1ccc(Br)cc1.O=C(O)C(=O)O [Compound 6-oxalate] ?
Reply | small value

Further cases:
Ask | Which Solubility in H2O band matches CN(C(=O)c1ccc(Cl)c(Cl)c1)[C@@H]1CC[C@@]2(O)[C@H]3Cc4ccc(O)c5c4[C@@]2(CCN3CC2CC2)[C@H]1O5.O=C(O)C(=O)O [18b—Oxalate] ?
Reply | large value

Ask | Which Solubility in H2O band matches CN(C(=O)c1ccc(Br)cc1)[C@H]1CC[C@@]2(O)[C@H]3Cc4ccc(O)c5c4[C@@]2(CCN3CC2CC2)[C@H]1O5.O=C(O)C(=O)O [14a—Oxalate] ?
Reply | mid value

Ask | Which Solubility in H2O band matches CN(C(=O)c1ccc(Cl)c(Cl)c1)[C@H]1CC[C@@]2(O)[C@H]3Cc4ccc(O)c5c4[C@@]2(CCN3CC2CC2)[C@H]1O5.O=C(O)C(=O)O [18a—Oxalate] ?
Reply | mid value

Ask | Which Solubility in H2O band matches CN(C(=O)c1ccc(C(F)(F)F)cc1)[C@@H]1CC[C@@]2(O)[C@H]3Cc4ccc(O)c5c4[C@@]2(CCN3CC2CC2)[C@H]1O5.O=C(O)C(=O)O [13b—Oxalate] ?
Reply | small value

Ask | Which Solubility in H2O band matches CN(C(=O)c1ccc(Cl)cc1)[C@@H]1CC[C@@]2(O)[C@H]3Cc4ccc(O)c5c4[C@@]2(CCN3CC2CC2)[C@H]1O5.O=C(O)C(=O)O [17b—Oxalate] ?
Reply | mid value

====

target: δ-opioid receptor (Homo sapiens, UniProt P41143); construct: expressed in transfected cells; host or cells: CHO cells; test: biochemical; format: binding; conditions: Ki (nM) ± SEM, δ, Table 1b, N-oxides
Sequence (P41143 whole entry): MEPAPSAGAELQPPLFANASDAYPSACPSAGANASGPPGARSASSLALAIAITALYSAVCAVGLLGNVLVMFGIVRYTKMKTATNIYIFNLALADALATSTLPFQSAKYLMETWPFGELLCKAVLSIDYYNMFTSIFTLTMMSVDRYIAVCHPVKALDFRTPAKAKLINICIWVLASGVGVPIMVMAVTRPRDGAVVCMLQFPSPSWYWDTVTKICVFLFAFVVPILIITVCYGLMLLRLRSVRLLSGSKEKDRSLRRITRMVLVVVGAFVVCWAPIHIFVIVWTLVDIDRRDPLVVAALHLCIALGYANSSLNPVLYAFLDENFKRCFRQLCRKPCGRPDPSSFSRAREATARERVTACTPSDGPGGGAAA
observed.property: log10 of Ki (log10 of the value in nM)
Response schema: value (number) is log10 of Ki in units of nM.

Example results:
Ask | Report log10 of Ki for O=C(N[C@@H]1CC[C@@]2(O)[C@H]3Cc4ccc(O)c5c4[C@@]2(CC[N+]3([O-])CC2CC2)[C@H]1O5)c1ccc(C(F)(F)F)cc1 (stereo partly drawn) [Compound 22] please.
Reply | 2.07

Ask | Report log10 of Ki for O=C(N[C@H]1CC[C@@]2(O)[C@H]3Cc4ccc(O)c5c4[C@@]2(CC[N+]3([O-])CC2CC2)[C@H]1O5)c1ccccc1 (stereo partly drawn) [Compound 37] please.
Reply | 2.91

Ask | Report log10 of Ki for CC(C)(C)c1ccc(C(=O)N[C@@H]2CC[C@@]3(O)[C@H]4Cc5ccc(O)c6c5[C@@]3(CC[N+]4([O-])CC3CC3)[C@H]2O6)cc1 (stereo partly drawn) [Compound 23] please.
Reply | 1.40

Ask | Report log10 of Ki for CN(C(=O)c1ccc(Br)cc1)[C@H]1CC[C@@]2(O)[C@H]3Cc4ccc(O)c5c4[C@@]2(CC[N+]3([O-])CC2CC2)[C@H]1O5 (stereo partly drawn) [Compound 26] please.
Reply | 1.71

Ask | Report log10 of Ki for COc1ccc(CC(=O)N[C@@H]2CC[C@@]3(O)[C@H]4Cc5ccc(O)c6c5[C@@]3(CC[N+]4([O-])CC3CC3)[C@H]2O6)cc1 (stereo partly drawn) [Compound 39] please.
Reply | 2.67

Ask | Report log10 of Ki for O=C(N[C@@H]1CC[C@@]2(O)[C@H]3Cc4ccc(O)c5c4[C@@]2(CC[N+]3([O-])CC2CC2)[C@H]1O5)c1ccc(Cl)cc1 (stereo partly drawn) [Compound 35] please.
Reply | 2.34

Shift focus to the following entry.
Ask | Report log10 of Ki for COc1ccc(C(=O)N[C@@H]2CC[C@@]3(O)[C@H]4Cc5ccc(O)c6c5[C@@]3(CC[N+]4([O-])CC3CC3)[C@H]2O6)cc1OC (stereo partly drawn) [Compound 29] please.
Reply | 2.79

====

test: Metabolic stability, human liver S-9; conditions: human, s9, pH 7.4
observed.property: half-life at 40 μM

Ask | Report half-life at 40 μM for C=C1CC[C@@]2(O)[C@H]3Cc4ccc(O)c5c4[C@@]2(CCN3CC2CC2)[C@H]1O5 [Compound 1b, nalmefene, reference compound] please.
Reply | 0.333 h

Ask | Report half-life at 40 μM for O=C(N[C@@H]1CC[C@@]2(O)[C@H]3Cc4ccc(O)c5c4[C@@]2(CCN3CC2CC2)[C@H]1O5)c1ccc(Br)cc1 please.
Reply | > 1.87 h

Shift focus to the following entry.
Ask | Report half-life at 40 μM for CC(C)(C)c1ccc(C(=O)N[C@@H]2CC[C@@]3(O)[C@H]4Cc5ccc(O)c6c5[C@@]3(CCN4CC3CC3)[C@H]2O6)cc1 please.
Reply | > 1.87 h

====

Listing of entries alongside the reported Emax.
target: μ-opioid receptor (Mus musculus, UniProt P42866); construct: FLAG; expressed in transfected cells; assay: biochemical; design: species or system human; details: read-out: Emax, μ, stimulation of [35S]GTPγS binding
Sequence (P42866 whole entry): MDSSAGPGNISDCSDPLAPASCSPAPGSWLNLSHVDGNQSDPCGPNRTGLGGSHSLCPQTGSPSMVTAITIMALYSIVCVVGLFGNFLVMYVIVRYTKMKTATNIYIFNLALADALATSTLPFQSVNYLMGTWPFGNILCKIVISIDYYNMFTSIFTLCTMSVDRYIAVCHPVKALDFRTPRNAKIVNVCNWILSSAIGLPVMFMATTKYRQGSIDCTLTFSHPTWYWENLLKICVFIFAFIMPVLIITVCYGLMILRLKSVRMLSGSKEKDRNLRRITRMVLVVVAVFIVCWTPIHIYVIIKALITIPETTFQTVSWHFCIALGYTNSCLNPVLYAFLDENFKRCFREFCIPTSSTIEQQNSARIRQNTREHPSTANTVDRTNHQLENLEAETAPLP

Ask | Report Emax for O=C(N[C@@H]1CC[C@@]2(O)[C@H]3Cc4ccc(O)c5c4[C@@]2(CCN3CC2CC2)[C@H]1O5)c1ccc(Cl)cc1 please.
Reply | 46%

Ask | Report Emax for O=C(N[C@@H]1CC[C@@]2(O)[C@H]3Cc4ccc(O)c5c4[C@@]2(CCN3CC2CC2)[C@H]1O5)c1ccc(C(F)(F)F)cc1 please.
Reply | 28 to 63%

Ask | Report Emax for O=C(N[C@@H]1CC[C@@]2(O)[C@H]3Cc4ccc(O)c5c4[C@@]2(CCN3CC2CC2)[C@H]1O5)c1ccc(I)cc1 please.
Reply | 28 to 63%

Shift focus to the following entry.
Ask | Report Emax for O=C(N[C@@H]1CC[C@@]2(O)[C@H]3Cc4ccc(O)c5c4[C@@]2(CCN3CC2CC2)[C@H]1O5)c1ccc(Br)cc1 please.
Reply | 28 to 63%

====

target: δ-opioid receptor (Homo sapiens); construct: expressed in transfected cells; host or cells: CHO cells; experiment: biochemical; type: binding; settings: Ki (nM) ± SEM, δ, Table 1b, N-oxides
Listing of entries alongside the reported Ki.
Kindly answer with a numeric value in nM, unit omitted.

Ask | Report Ki for CN(C(=O)c1ccc(I)cc1)[C@H]1CC[C@@]2(O)[C@H]3Cc4ccc(O)c5c4[C@@]2(CC[N+]3([O-])CC2CC2)[C@H]1O5 (some centres unmarked) please.
Reply | 290

Ask | Report Ki for O=C(N[C@@H]1CC[C@@]2(O)[C@H]3Cc4ccc(O)c5c4[C@@]2(CC[N+]3([O-])CC2CC2)[C@H]1O5)c1ccccc1 (some centres unmarked) please.
Reply | 813

Further cases:
Ask | Report Ki for O=C(N[C@@H]1CC[C@@]2(O)[C@H]3Cc4ccc(O)c5c4[C@@]2(CC[N+]3([O-])CC2CC2)[C@H]1O5)c1ccc([N+](=O)[O-])cc1 (some centres unmarked) please.
Reply | 590

Ask | Report Ki for COC(=O)c1ccc(C(=O)N[C@@H]2CC[C@@]3(O)[C@H]4Cc5ccc(O)c6c5[C@@]3(CC[N+]4([O-])CC3CC3)[C@H]2O6)cc1 (some centres unmarked) please.
Reply | 1390

Ask | Report Ki for NC(=NO)c1cccc(C(=O)NC2CCC3(O)C4Cc5ccc(O)c6c5C3(CC[N+]4([O-])CC3CC3)C2O6)c1 (centres unmarked) please.
Reply | 1220
